- PROTOCOL: Cmax in Sprague-Dawley rat at 5 mg/kg, iv by LC-MS/MS analysis
- Type: ADME, organism-based
- Parameters: dose 5 mg/kg, route iv
- RUN_PARAMETERS: in vivo
ENDPOINT_LABEL: Cmax

// query Return the recorded Cmax value; entry: COc1nc(O[C@H]2CCc3c(-c4cccc(C(=O)Nc5ccc(CNC[C@@H]6CCC(=O)N6)cn5)c4Cl)cccc32)c(Cl)cc1CNC[C@@H]1CCC(=O)N1
// result 2370 ng/mL

====

- PROTOCOL: Oral bioavailability in Sprague-Dawley rat at 25 mg/kg by LC-MS/MS analysis
- Assay type: ADME, organism-based
- RUN_PARAMETERS: in vivo
ENDPOINT_LABEL: bioavailability (%)
Field: numeric (%). Do not append units.

// query State, in one line, measured bioavailability of COc1nc(O[C@H]2CCc3c(-c4cccc(C(=O)Nc5ccc(CNC[C@@H]6CCC(=O)N6)cn5)c4Cl)cccc32)c(Cl)cc1CNC[C@@H]1CCC(=O)N1
// result 1.6

====

What pIC50 was measured for each of the following?
- TARGET: Programmed cell death protein 1/Programmed cell death 1 ligand 1 (Homo sapiens, UniProt Q9NZQ7)
- Sequence (Q15116 whole entry, the tested form may be a part): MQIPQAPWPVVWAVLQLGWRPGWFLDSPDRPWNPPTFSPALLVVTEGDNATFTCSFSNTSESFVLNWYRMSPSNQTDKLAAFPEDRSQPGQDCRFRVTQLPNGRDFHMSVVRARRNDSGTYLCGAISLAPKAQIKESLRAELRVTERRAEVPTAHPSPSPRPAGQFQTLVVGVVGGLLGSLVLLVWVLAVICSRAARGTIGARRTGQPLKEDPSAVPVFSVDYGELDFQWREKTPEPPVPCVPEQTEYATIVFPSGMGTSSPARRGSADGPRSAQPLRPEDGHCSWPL
- Sequence (Q9NZQ7 whole entry, the tested form may be a part): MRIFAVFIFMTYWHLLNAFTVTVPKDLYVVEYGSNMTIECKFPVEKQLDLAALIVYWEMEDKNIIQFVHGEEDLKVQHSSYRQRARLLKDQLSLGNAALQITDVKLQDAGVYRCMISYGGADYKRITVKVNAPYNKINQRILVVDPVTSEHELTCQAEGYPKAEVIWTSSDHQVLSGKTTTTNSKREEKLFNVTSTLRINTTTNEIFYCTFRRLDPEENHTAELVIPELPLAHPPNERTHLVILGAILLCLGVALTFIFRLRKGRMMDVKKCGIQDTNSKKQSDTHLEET
- PROTOCOL: Inhibition of interaction of Fc(IgG1)-Avi)-(Biotin)-fused human PDL1 (19 to 239 residues)/Eu-labeled human PD-1 (25 to 167 residues) expressed in HEK293 cells pretreated with PDL1 for 15 mins followed by PD-1 addition and measured after 90 mins by TR-FRET assay
- Assay type: cell-based
Please note pIC50 is a logarithmic value: minus log10 of concentration in mol/L. Answer with that number alone.

// query Report measured pIC50; entry is CC(=O)NCCNCc1cccc(Nc2nnc(-c3cccc(-c4cccc(-c5nnc(Nc6cccc(CNCCNC(C)=O)c6)o5)c4C)c3C)o2)c1
// result 7.23

// query Tell me its pIC50 given COc1nc(O[C@H]2CCc3c(-c4cccc(C(=O)Nc5ccc(CNCCN(C)C)cn5)c4Cl)cccc32)c(Cl)cc1CNCCN(C)C as the entry.
// result 8.38

// query Assign pIC50 to the following record: Cc1c(-c2cccc(-c3nnc(Nc4cccc(CNCCO)c4)o3)c2)cccc1-c1nnc(Nc2cccc(CN3CC[C@@H](O)C3)c2)o1
// result 7.29

// query Kindly indicate its recorded pIC50. Item: Cc1c(-c2ccccc2)cccc1-c1nnc(Nc2cccc(CNCCO)c2)o1
// result 7.56

// query Read off the recorded pIC50 for COc1nc(NC(=O)c2cccc(-c3cccc4c3CC[C@@H]4Oc3nc(OC)c(CNCCNC(C)=O)cc3Cl)c2Cl)ccc1CNCCNC(C)=O
// result 7.66

// query Write down pIC50 measured for item COc1nc(O[C@H]2CCc3c(-c4cccc(C(=O)Nc5ccc(CNCCNC(C)=O)c(C(F)(F)F)n5)c4Cl)cccc32)c(Cl)cc1CNCCNC(C)=O
// result 7.73

// query Provide measured pIC50 value, entry: COc1nc(-c2cccc(-c3cccc(-c4nnc(Nc5cccc(CNCCO)c5)o4)c3C)c2C)ccc1CNCCNC(C)=O
// result 7.63

====

ENDPOINT_LABEL: Kd (nM)
Value expressed in nM; do not type the unit.

// query Write down the reported Kd (system: Programmed cell death 1 ligand 1 (Mus musculus, UniProt Q9EP73)) of COc1nc(O[C@H]2CCc3c(-c4cccc(C(=O)Nc5ccc(CNC[C@@H]6CCC(=O)N6)cn5)c4Cl)cccc32)c(Cl)cc1CNC[C@@H]1CCC(=O)N1
Sequence (Q9EP73 whole entry): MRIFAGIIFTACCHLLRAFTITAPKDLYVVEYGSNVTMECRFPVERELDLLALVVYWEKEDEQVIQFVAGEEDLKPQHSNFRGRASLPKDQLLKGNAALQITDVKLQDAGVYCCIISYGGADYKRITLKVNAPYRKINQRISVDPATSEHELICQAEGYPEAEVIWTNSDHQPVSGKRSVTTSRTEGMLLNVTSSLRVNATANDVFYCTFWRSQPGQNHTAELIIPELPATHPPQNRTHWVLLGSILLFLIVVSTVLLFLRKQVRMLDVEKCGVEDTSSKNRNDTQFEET
// result 790

====

- PROTOCOL: Tmax in Sprague-Dawley rat at 5 mg/kg, iv by LC-MS/MS analysis
- Format: ADME, organism-based
- RUN_PARAMETERS: in vivo
ENDPOINT_LABEL: Tmax
Please state the number and follow it with the unit.

// query Answer with the recorded Tmax of COc1nc(O[C@H]2CCc3c(-c4cccc(C(=O)Nc5ccc(CNC[C@@H]6CCC(=O)N6)cn5)c4Cl)cccc32)c(Cl)cc1CNC[C@@H]1CCC(=O)N1 only.
// result 1.8 min

====

- PROTOCOL: AUC(0 to t) in Sprague-Dawley rat at 25 mg/kg, po by LC-MS/MS analysis
- Type: ADME, organism-based
- Parameters: dose 25 mg/kg, route po
- RUN_PARAMETERS: in vivo
ENDPOINT_LABEL: AUC(0-t) (ng·h/mL)
Numbers only here, please. The scale is ng·h/mL.

// query Answer with the recorded AUC(0-t) for the compound listed here: COc1nc(O[C@H]2CCc3c(-c4cccc(C(=O)Nc5ccc(CNC[C@@H]6CCC(=O)N6)cn5)c4Cl)cccc32)c(Cl)cc1CNC[C@@H]1CCC(=O)N1
// result 73.1

====

- TARGET: Programmed cell death protein 1/Programmed cell death 1 ligand 1 (Homo sapiens)
- PROTOCOL: Inhibition of interaction of Fc(IgG1)-Avi)-(Biotin)-fused human PDL1 (19 to 239 residues)/Eu-labeled human PD-1 (25 to 167 residues) expressed in HEK293 cells pretreated with PDL1 for 15 mins followed by PD-1 addition and measured after 90 mins by TR-FRET assay
Label met when IC50 is strictly below 10 nM; otherwise label not met.

// query Determine if Cc1c(C(=O)Nc2ccc(CNCCO)cn2)cccc1-c1cccc(-c2nnc(Nc3cccc(CNCCO)c3)o2)c1C shows IC50 strictly lower than 10 nM.
// result not met

// query Hello, I'm reviewing records and need to know if IC50 of COc1nc(O[C@H]2CCc3c(-c4cccc(C(=O)Nc5ccc(CNC[C@@H]6CCC(=O)N6)cn5)c4Cl)cccc32)c(Cl)cc1CNC[C@@H]1CCC(=O)N1 is below 10 nM. Could you check?
// result met

// query # TODO verify IC50 < 10 nM strictly for this molecule: Cc1c(-c2nnc(Nc3ccc(CNCCO)cc3)o2)cccc1-c1cccc(-c2nnc(Nc3cccc(CNCCO)c3)o2)c1C
// result not met

// query Is the reported IC50 for CC(=O)NCCNCc1cccc(Nc2nnc(-c3cccc(-c4cccc(-c5nnc(Nc6cccc(CNCCO)c6)o5)c4C)c3C)o2)c1 strictly below 10 nM?
// result not met

// query Is the reported IC50 for COc1nc(O[C@H]2CCc3c(-c4cccc(C(=O)Nc5ccc(CN6CC(O)C6)cn5)c4Cl)cccc32)c(Cl)cc1CN1CC(O)C1 strictly below 10 nM?
// result met

// query Confirm or reject: IC50 of Cc1c(-c2nnc(Nc3cccc(CN4CC[C@@H](O)C4)c3)o2)cccc1-c1cccc(-c2nnc(Nc3cccc(CN4CC[C@@H](O)C4)c3)o2)c1C lies strictly below 10 nM
// result not met

// query Please determine if Cc1c(-c2nnc(Nc3cccc(CNCCO)c3)o2)cccc1-c1cccc(C(=O)Nc2ccc(CNCCO)cn2)c1Cl is below 10 nM in terms of IC50.
// result met

// query IC50 under 10 nM? Item: Cc1c(C(=O)Nc2ccc(CNCCO)cc2)cccc1-c1cccc(-c2nnc(Nc3cccc(CNCCO)c3)o2)c1C
// result not met

// query Does this molecule meet the criterion IC50 < 10 nM? CC(=O)NCCNCc1ccc(Nc2nnc(-c3cccc(-c4cccc(-c5nnc(Nc6cccc(CNCCNC(C)=O)c6)o5)c4C)c3C)o2)cc1
// result not met

// query For Cc1c(-c2nnc(Nc3cccc(CNCCO)c3)o2)cccc1-c1cccc(-c2nnc(Nc3cccc(CNCCO)c3)o2)c1C , is the recorded IC50 below the cut-off of 10 nM?
// result not met

// query Please let me know if COc1nc(O[C@H]2CCc3c(-c4cccc(C(=O)Nc5ccc(CN6CCC7(CC6)CNC(=O)C7)cn5)c4Cl)cccc32)c(Cl)cc1CN1CCC2(CC1)CNC(=O)C2 shows IC50 below 10 nM.
// result not met

// query Please determine if COc1nc(O[C@H]2CCc3c(-c4cccc(C(=O)Nc5ccc(CNCCNC(C)=O)c(F)n5)c4Cl)cccc32)c(Cl)cc1CNCCNC(C)=O is below 10 nM in terms of IC50.
// result not met

// query Please let me know if COc1nc(NC(=O)c2cccc(-c3cccc4c3CC[C@@H]4Oc3nc(OC)c(CNCCO)cc3Cl)c2Cl)ccc1CNCCO shows IC50 below 10 nM.
// result not met

// query Answer whether the molecule Cc1c(-c2cccc(-c3ccc(CNCCO)cc3)c2)cccc1-c1nnc(Nc2cccc(CNCCO)c2)o1 has IC50 strictly less than 10 nM
// result not met

// query Is IC50 strictly under 10 nM for the entry Cc1c(-c2nnc(Nc3ccc(CN4CC[C@@H](O)C4)cc3)o2)cccc1-c1cccc(-c2nnc(Nc3cccc(CN4CC[C@@H](O)C4)c3)o2)c1C ?
// result not met

// query Please indicate whether the reported IC50 of COc1nc(O[C@H]2CCc3c(-c4cccc(C(=O)Nc5ccc(CNCCO)c(F)n5)c4Cl)cccc32)c(Cl)cc1CNCCO is strictly below 10 nM.
// result not met

// query Identify whether the molecule COc1nc(O[C@H]2CCc3c(-c4cccc(C(=O)Nc5ccc(CNCCO)cn5)c4Cl)cccc32)c(Cl)cc1CNCCO records IC50 below 10 nM.
// result met

// query Does the reported IC50 of the following molecule sit strictly below 10 nM? COc1nc(-c2cccc(-c3cccc(-c4nnc(Nc5cccc(CNCCO)c5)o4)c3C)c2C)ccc1CNCCO
// result not met

// query Bench note: check whether Cc1c(-c2ccc(CNCCO)cc2)cccc1-c1cccc(-c2nnc(Nc3cccc(CNCCO)c3)o2)c1C shows IC50 below 10 nM
// result not met

// query hey, is IC50 for COc1nc(O[C@H]2CCc3c(-c4cccc(C(=O)Nc5ccc(CNCCO)c(C(F)(F)F)n5)c4Cl)cccc32)c(Cl)cc1CNCCO lower than 10 nM or not?
// result not met

// query Quick check: does CC(=O)NCCNCc1ccc(NC(=O)c2cccc(-c3cccc(-c4nnc(Nc5cccc(CNCCO)c5)o4)c3C)c2C)nc1 have IC50 under 10 nM?
// result not met

// query Regarding COc1nc(O[C@H]2CCc3c(-c4cccc(C(=O)Nc5ccc(CNCCNC(C)=O)cn5)c4Cl)cccc32)c(Cl)cc1CNCCNC(C)=O , kindly confirm whether its IC50 is beneath 10 nM.
// result met

// query Would you kindly verify if IC50 of Cc1c(-c2nnc(Nc3cccc(CNCC(=O)O)c3)o2)cccc1-c1cccc(-c2nnc(Nc3cccc(CNCC(=O)O)c3)o2)c1C is strictly less than 10 nM?
// result not met
